- tgt: T1, Recombinant Human DLL4 (delta-like protein 4) (human, UniProt Q9NR61 27-524)
- T1 construct: also called rHuman DLL4; Delta-like 4
- assay overview: ECL (MSD) binding assay, DLL4 immobilised, Fab at 10 nM
experimental endpoint: Signal [10 nM Fab]
Please respond with just the number, no unit label.

// known answers, use as guide
binder	Signal [10 nM Fab]
Fab VH1-46_IGHD6-6*01_IGHJ1*01 S102A/S103P/S104F/H111F & L6_IGKJ1*01 T56A (Fab, V domains shown, also called APFF & L6_IGKJ1*01 T56A) VH: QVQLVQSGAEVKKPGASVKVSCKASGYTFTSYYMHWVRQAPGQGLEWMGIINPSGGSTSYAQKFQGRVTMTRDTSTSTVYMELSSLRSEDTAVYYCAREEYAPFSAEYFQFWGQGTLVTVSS VL: EIVLTQSPATLSLSPGERATLSCRASQSVSSYLAWYQQKPGQAPRLLIYDASNRAAGIPARFSGSGSGTDFTLTISSLEPEDFAVYYCQQRSNWPPWTFGQGTKVEIKR	7260
Fab VH1-46_IGHD6-6*01_IGHJ1*01 S102A/S103P/S104F/H111F & L6_IGKJ1*01 A51T (Fab, V domains shown, also called APFF & L6_IGKJ1*01 A51T) VH: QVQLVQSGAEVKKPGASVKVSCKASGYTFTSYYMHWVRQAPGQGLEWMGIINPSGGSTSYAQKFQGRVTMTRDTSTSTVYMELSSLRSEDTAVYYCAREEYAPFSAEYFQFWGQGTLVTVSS VL: EIVLTQSPATLSLSPGERATLSCRASQSVSSYLAWYQQKPGQAPRLLIYDTSNRATGIPARFSGSGSGTDFTLTISSLEPEDFAVYYCQQRSNWPPWTFGQGTKVEIKR	2850

Proceeding to the next binder to report its Signal [10 nM Fab].
// query Give the reported value of Signal [10 nM Fab] for this record: Fab VH1-46_IGHD6-6*01_IGHJ1*01 S102A/S103P/S104F/H111F & L6_IGKJ1*01 S52A (Fab, V domains shown, also called APFF & L6_IGKJ1*01 S52A) VH: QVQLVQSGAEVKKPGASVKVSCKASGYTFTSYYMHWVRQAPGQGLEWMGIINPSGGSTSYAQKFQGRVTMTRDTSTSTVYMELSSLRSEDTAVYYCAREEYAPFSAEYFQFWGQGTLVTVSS VL: EIVLTQSPATLSLSPGERATLSCRASQSVSSYLAWYQQKPGQAPRLLIYDAANRATGIPARFSGSGSGTDFTLTISSLEPEDFAVYYCQQRSNWPPWTFGQGTKVEIKR
// result 19300
